Biological target: D(4) dopamine receptor (Homo sapiens, UniProt P21917)
Sequence (P21917 whole entry): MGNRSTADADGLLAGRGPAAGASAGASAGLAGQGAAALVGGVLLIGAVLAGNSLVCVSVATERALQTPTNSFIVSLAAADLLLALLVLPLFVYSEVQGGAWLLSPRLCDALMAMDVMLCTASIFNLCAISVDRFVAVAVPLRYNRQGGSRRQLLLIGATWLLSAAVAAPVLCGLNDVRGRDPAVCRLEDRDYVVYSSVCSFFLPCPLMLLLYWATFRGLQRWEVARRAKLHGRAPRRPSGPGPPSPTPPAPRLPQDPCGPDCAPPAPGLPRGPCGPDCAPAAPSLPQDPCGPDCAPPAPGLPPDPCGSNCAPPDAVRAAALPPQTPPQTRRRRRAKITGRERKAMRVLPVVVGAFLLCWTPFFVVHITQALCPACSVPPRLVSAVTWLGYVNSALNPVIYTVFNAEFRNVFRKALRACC
Assay: DRUGMATRIX: Dopamine D4.2 radioligand binding (ligand: [3H] Spiperone)
Format: cell membranes, Membrane
Conditions: cho-k1; Not Active = under 50% inhibition at 10 µM
measure_name: IC50

CC(C)CC(N(C)C)C1(c2ccc(Cl)cc2)CCC1 (stereo not drawn) | Not Active
CCOC(=O)C(C)(C)Oc1ccc(Cl)cc1 [CLOFIBRATE] | Not Active
Cc1onc(-c2ccccc2)c1-c1ccc(S(N)(=O)=O)cc1 | Not Active
